test system: CHEAL (common lambsquarters); test: Pre-plant incorporated (PPI) herbicidal activity, warm season; format: in vivo, Chenopodium album; details: PPI application, 30 g/ha
So I've got a bunch of molecules here, and I need their Percent inhibition CHEAL values.
Numeric answer only, unit % assumed.

Percent inhibition CHEAL for CCN(CC)C(=O)n1cnc(S(=O)(=O)C(F)(F)SCc2ccccc2)n1 ?
60

So what does the record say about Percent inhibition CHEAL for CCN(CC)C(=O)n1cnc(S(=O)(=O)C(F)(F)SCC(=O)OC)n1 ?
60

Need Percent inhibition CHEAL, item CCN(CC)C(=O)n1cnc(S(=O)(=O)C(F)(F)F)n1
90

Could you tell me which Percent inhibition CHEAL is on file for CCN(CC)C(=O)n1cnc(S(=O)(=O)C(F)(F)SC)n1 ?
95

Fill blank: measured Percent inhibition CHEAL of the molecule CCN(CC)C(=O)n1cnc(S(=O)(=O)C(F)(F)SCCOC)n1 is ____.
20

Given CCN(CC)C(=O)n1cnc(S(=O)(=O)C(F)(F)Cl)n1 , state its recorded Percent inhibition CHEAL.
80

Look up Percent inhibition CHEAL: CCN(CC)C(=O)n1cnc(S(=O)(=O)C(F)(F)C(F)(F)Br)n1
60

GET /values?readout=Percent inhibition CHEAL&item= CCN(CC)C(=O)n1cnc(S(=O)(=O)C(F)(F)C(F)F)n1
100
